Sourced from patent US6943181B2

As shown below, each of these compounds has a reported inhibition at 10 µM value.
# Assay system: nitrogen monoxide synthase (NO synthase) (Rattus norvegicus, UniProt P29476)
# Construct: the supernatant was then decanted off and frozen in portions; from tissue; host or cells: rat cerebellum (homogenate, 20,000 g supernatant)
# Procedure text: HTS-NOS assay (nitrogen monoxide synthase assay)
# Assay type: biochemical
# Details: compound at 10 μM; enzyme preparation from rat cerebella; [3H]-arginine substrate
Numeric answer only, unit % assumed.

In the examples that follow, each entry is paired with its recorded inhibition at 10 µM.
* COc1cc(OC)cc(C2(C)CC(Nc3ncc(C(F)(F)F)cc3Cl)C(=O)O2)c1 (stereo not shown) | 60
* CCOc1ccc(C2(C)CC(Nc3cc(C)cc(C)n3)C(=O)O2)cc1 (stereo not shown) | 59
* CC1(c2ccc3c(c2)OCO3)CC(Nc2ncccc2[N+](=O)[O-])C(=O)O1 (stereo not shown) | 40
* Cc1cc(C)cc(C2(C)CC(Nc3cc(C)cc(C)n3)C(=O)O2)c1 (stereo not shown) | 58
* Cc1cnc(NC2CC(C)(c3ccc(C#N)cc3)OC2=O)c(Br)c1 (stereo not shown) | 44
* Cc1ccnc(NC2CC(C)(c3ccc(C(C)(C)C)cc3)OC2=O)c1[N+](=O)[O-] (stereo not shown) | 47
* COc1ccccc1C1(C)CC(Nc2ccccn2)C(=O)O1 (stereo not shown) | 45
* Cc1cccc(NC2CC(C)(c3ccc4c(c3)OCO4)OC2=O)n1 (stereo not shown) | 53
* CC1(c2ccc(I)cc2)CC(Nc2ncccc2OCc2ccccc2)C(=O)O1 (stereo not shown) | 44

Moving on to the next compound.
Entry COc1cc(OC)cc(C2(C)CC(Nc3n[nH]cc3Br)C(=O)O2)c1 (stereo not shown) needs its inhibition at 10 µM filled in; supply it.
40
